Target: Muscarinic acetylcholine receptor M4 (rat)
Experiment: Positive allosteric modulation of rat M4 receptor expressed in CHO cells co-expressing Gqi5 assessed as increase in acetylcholine-induced calcium mobilization incubated with EC20 ACh for 140 secs and subsequent EC80 Ach addition further incubated for 120 secs by Fluo-4-AM dye based fluorescence assay
Mark each entry met if its EC50 sits below 200 nM, and not met for all others.

Example entries and their recorded answers appear below.
mol=Cc1nnc2ccc(C(=O)NC3CN(c4ncc(C#N)cc4Cl)C3)cc2c1C class_name=met
mol=Cc1nnc2ccc(C(=O)NC3CN(c4ncc(Cl)cc4F)C3)cc2c1C class_name=met
mol=Cc1nnc2ccc(C(=O)NC3CN(c4ncc(F)cc4Cl)C3)cc2c1C class_name=met
mol=Cc1nnc2ccc(C(=O)NC3CN(c4cc(Cl)ncc4Cl)C3)cc2c1C class_name="not met"

--- query ---
QUERY: Field: below-cutoff. Rule: recorded EC50 strictly less than 200 nM. Subject: COc1cc(N2CC(NC(=O)c3ccc4nnc(C)c(C)c4c3)C2)c(Cl)cn1
RESULT: not met

====

Biological target: Muscarinic acetylcholine receptor M4 (human)
Test: Positive allosteric modulation of human M4 receptor expressed in CHO cells co-expressing Gqi5 assessed as increase in acetylcholine-induced calcium mobilization incubated with EC20 ACh for 140 secs and subsequent EC80 Ach addition further incubated for 120 secs by Fluo-4-AM dye based fluorescence assay
Reported pEC50 values are given for each entry in this list.
Would you please state pEC50, meaning minus log10 of the concentration in mol/L, as a bare number?

mol=Cc1nnc2ccc(C(=O)NC3CN(c4ccc(Cl)cn4)C3)cc2c1C tested_system="Muscarinic acetylcholine receptor M4 (human)" observed_result=5.90
mol=Cc1nnc2ccc(C(=O)NC3CN(c4ccc(F)c(F)c4)C3)cc2c1C tested_system="Muscarinic acetylcholine receptor M4 (human)" observed_result=6.13
mol=Cc1nnc2ccc(C(=O)NC3CN(c4ncc(C5CC5)cc4Cl)C3)cc2c1C tested_system="Muscarinic acetylcholine receptor M4 (human)" observed_result=5.86
mol=Cc1nnc2ccc(C(=O)NC3CN(c4ncc(C(F)(F)F)cc4Cl)C3)cc2c1C tested_system="Muscarinic acetylcholine receptor M4 (human)" observed_result=5.58
mol=Cc1nnc2ccc(C(=O)NC3CN(c4cccc(F)n4)C3)cc2c1C tested_system="Muscarinic acetylcholine receptor M4 (human)" observed_result=6.18

QUERY: Returns the measured pEC50 for the input compound. Input: Cc1nnc2ccc(C(=O)NC3CN(c4cc(Cl)ncc4Cl)C3)cc2c1C
RESULT: 6.94

QUERY: // query: Cc1nnc2ccc(C(=O)NC3CN(c4ncccc4F)C3)cc2c1C
RESULT: 5.92

====

Molecular target: Muscarinic acetylcholine receptor M4 (human) (UniProt P08173)
Sequence (P08173 whole entry, looked up): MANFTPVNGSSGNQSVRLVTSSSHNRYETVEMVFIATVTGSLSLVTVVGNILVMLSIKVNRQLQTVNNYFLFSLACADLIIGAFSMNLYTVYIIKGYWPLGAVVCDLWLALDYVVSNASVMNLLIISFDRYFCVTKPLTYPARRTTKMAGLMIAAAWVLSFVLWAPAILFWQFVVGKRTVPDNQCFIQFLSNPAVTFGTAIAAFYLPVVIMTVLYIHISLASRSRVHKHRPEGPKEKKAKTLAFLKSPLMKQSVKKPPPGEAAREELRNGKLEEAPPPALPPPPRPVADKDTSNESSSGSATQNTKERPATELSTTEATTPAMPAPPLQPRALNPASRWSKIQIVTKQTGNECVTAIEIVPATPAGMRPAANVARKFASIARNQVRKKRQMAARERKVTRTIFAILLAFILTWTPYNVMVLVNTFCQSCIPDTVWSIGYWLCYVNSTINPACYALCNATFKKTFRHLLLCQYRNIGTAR
Experiment: Positive allosteric modulation of human M4 receptor expressed in CHO cells co-expressing Gqi5 assessed as increase in acetylcholine-induced calcium mobilization incubated with EC20 ACh for 140 secs and subsequent EC80 Ach addition further incubated for 120 secs by Fluo-4-AM dye based fluorescence assay
log10 EC50 values for the compounds below.
Remember, log10 of EC50, in nM.

Solved entries:
mol=Cc1nnc2ccc(C(=O)NC3CN(c4ccc(OC(F)F)nc4)C3)cc2c1C tested_system="Muscarinic acetylcholine receptor M4 (human) (UniProt P08173)" observed_result=3.16
mol=Cc1nnc2ccc(C(=O)NC3CN(c4cnc(C5CC5)cn4)C3)cc2c1C tested_system="Muscarinic acetylcholine receptor M4 (human) (UniProt P08173)" observed_result=3.40
mol=Cc1nnc2ccc(C(=O)NC3CN(c4ncc(OC(C)C)cn4)C3)cc2c1C tested_system="Muscarinic acetylcholine receptor M4 (human) (UniProt P08173)" observed_result=3.51
mol=Cc1nnc2ccc(C(=O)NC3CN(c4ccc(C#N)cn4)C3)cc2c1C tested_system="Muscarinic acetylcholine receptor M4 (human) (UniProt P08173)" observed_result=3.01
mol=Cc1nnc2ccc(C(=O)NC3CN(c4cccc(Cl)n4)C3)cc2c1C tested_system="Muscarinic acetylcholine receptor M4 (human) (UniProt P08173)" observed_result=3.12

QUERY: Request body: readout log10 EC50, system Muscarinic acetylcholine receptor M4 (human) (UniProt P08173), query COc1cc(N2CC(NC(=O)c3ccc4nnc(C)c(C)c4c3)C2)c(Cl)cn1 . Return the value.
RESULT: 2.57

QUERY: Also Cc1nnc2ccc(C(=O)NC3CN(c4ncc(F)cc4Cl)C3)cc2c1C , if possible.
RESULT: 2.67

QUERY: Next up: Cc1nnc2ccc(C(=O)NC3CN(c4ncc(Cl)cc4F)C3)cc2c1C
RESULT: 2.81

====

Property: EC50; scope: individual compounds
Target: Muscarinic acetylcholine receptor M4 (human)
Test: Positive allosteric modulation of human M4 receptor expressed in CHO cells co-expressing Gqi5 assessed as increase in acetylcholine-induced calcium mobilization incubated with EC20 ACh for 140 secs and subsequent EC80 Ach addition further incubated for 120 secs by Fluo-4-AM dye based fluorescence assay
Just the number in nM, nothing appended.

Worked examples follow.
mol=Cc1nnc2ccc(C(=O)NC3CN(c4ncc(C#N)cc4Cl)C3)cc2c1C endpoint=EC50 observed_result=304
mol=Cc1nnc2ccc(C(=O)NC3CN(c4ncccc4Cl)C3)cc2c1C endpoint=EC50 observed_result=952

// moving on: another record for EC50
QUERY: Entry Cc1nnc2ccc(C(=O)NC3CN(c4cccc(C(F)(F)F)n4)C3)cc2c1C has what EC50?
RESULT: 3360
